# Tested on: U251 CNS
# protocol_description: NCI-60 one-dose screen, 48 h (100 = growth as untreated, 0 = no growth, -100 = all killed)
# particulars: 10 µM
The panel holds about 83,000 compounds, 20% with a hit somewhere; the sample as a whole holds those more often. The source made the active and inactive calls. The calls were made as follows: active = growth percent below 10; inactive = the rest.
Please provide measured growth for the entries that follow.

Task: Could you share which growth value was measured for Cc1ccc(CNC(=O)Cc2ccc3c(c2)CN(C2CCC(=O)NC2=O)C3=O)cc1 (stereo not drawn) ?
Result: 55.5% (inactive)

Task: // repeat for CCCCSc1nc(Nc2ccc(/C(C)=N/NC(N)=S)cc2)c(C#N)c(-c2ccc(F)cc2)n1 and report
Result: 7.7% (active)

Task: // repeat for OCCNc1oc(-c2ccccc2)nc1[P+](c1ccccc1)(c1ccccc1)c1ccccc1 and report
Result: 14.7% (inactive)

Task: // repeat for O=C(NO)c1ccc(CNC(=O)[C@H]2Cc3c([nH]c4ccccc34)[C@H](c3ccccc3)N2)cc1 and report
Result: 13.4% (inactive)

Task: // repeat for COc1cc(/C=N/NC(=O)c2ccc3nc(-c4ccc(Cl)cc4)[nH]c3c2)cc(OC)c1OC and report
Result: -86.6% (active)

Task: // repeat for O=C1Nc2ccc(F)cc2/C1=C/c1cccc(OCc2ccccc2)c1 and report
Result: 6.3% (active)

Task: // repeat for Cc1cc(C)nc(NS(=O)(=O)c2ccc(N/C(N)=N/c3nccc(-c4cccs4)n3)cc2)n1 and report
Result: 102% (inactive)

Task: // repeat for Brc1ccc(N/N=C/c2c[nH]c3ccccc23)nc1 and report
Result: 19.9% (inactive)

Task: // repeat for Cc1ccc(-c2nc(Nc3ccc(S(N)(=O)=O)cc3)c3ccccc3n2)cc1 and report
Result: 49.7% (inactive)

Task: // repeat for O=C(c1ccc(O)cc1)C1[C@H](c2ccc(Br)cc2)[C@@H](c2ccccc2)NC12C(=O)Nc1ccc(Br)cc12 (stereo partly drawn) and report
Result: -48.7% (active)

Task: // repeat for CC(=O)Nc1ccc(-c2cn(-c3cccc(C(=O)Nc4ccc(Cl)c(C(F)(F)F)c4)c3)nn2)cn1 and report
Result: -59.5% (active)

Task: // repeat for CCCCCCCCCCCCCCCCCCCC(=O)NCCc1c[nH]c2ccc(OC(=O)NOCCOCCOCCOCCOCCOCCOCCOCCOCCOCCOCCOCCOCCOCCOCCOCCOCCOCCOCCOCCOCCOCCOC)cc12 and report
Result: -16.8% (active)

Task: // repeat for CC[C@@]1(O)C(=O)OCc2c1cc1n(c2=O)Cc2c-1nc1cc(F)c(C)c3c1c2[C@@H](N)CC3 and report
Result: -42.1% (active)

Task: // repeat for Nc1cc(-c2cccc(C(=O)NCc3ccc4c(c3)OCO4)c2)ccn1 and report
Result: 92.2% (inactive)

Task: // repeat for CN1C(=O)/C(=C/c2ccc3ncsc3c2)NC1=NC12CC3CC(CC(O)(C3)C1)C2 and report
Result: 16.4% (inactive)

Task: // repeat for O=C(CN1CCN(c2ncnc3c2cnn3-c2ccccc2)CC1)Nc1nncs1 and report
Result: -72.5% (active)

Task: // repeat for C=C1CCC2C3(C)COC(c4c(F)cccc4F)OC3CCC2(C)C1C/C=C1/C(=O)OCC1O (stereo not drawn) and report
Result: -94.2% (active)

Task: // repeat for Nc1n[nH]c2cccc(C#Cc3cccc(NC(=O)Nc4cc(C(F)(F)F)cc(C(F)(F)F)c4)c3)c12 and report
Result: -78.5% (active)

Provenance of the data: PubChem BioAssay (NCI)
